# credit: PubChem BioAssay

- Experimental Protocol: modulators of HCV replicon luciferase signal, primary screen, HCV replication inhibitor project, Huh7 cells, luciferase reporter (AID 1109);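 further: huh7 hepatoma cells harbouring a luciferase neomycin HCV replicon reporter; luciferase luminescence as measure of HCV replicon replication; test concentration not given here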
- Condition Context: 48 h, higher = more signal

{"Record Smiles": "COC(=O)[C@@]1(Cc2ccc(OC)cc2)[C@H]2c3cc(C(=O)N(C)C)n(Cc4ccc(S(C)(=O)=O)cc4)c3C[C@H]2CN1C(=O)c1ccccc1", "z-score": -1.63}
{"Record Smiles": "CCCC[C@@H]1C[C@H]1[C@@H](NC(=O)c1cccs1)c1ccc(-c2ccccc2)cc1", "z-score": -2.05}
{"Record Smiles": "Cc1ccc([C@@H]2C[C@@H](Sc3ccccc3)[C@H](C(=O)O)CN2S(=O)(=O)c2ccc(C)cc2)cc1", "z-score": -0.733}
{"Record Smiles": "C=C[C@H](CO[Si](CC)(CC)CC)N(Cc1ccc(OC(C)=O)c(OC)c1)S(=O)(=O)c1ccc(Br)cc1", "z-score": -3.27}
{"Record Smiles": "Cc1ccc(S[C@]2(C(=O)NCCCN(C)C)CC(=O)N(Cc3cc(C(F)(F)F)cc(C(F)(F)F)c3)[C@@H]2c2ccc(CO)cc2I)cc1", "z-score": -2.1}
{"Record Smiles": "CCOC(=O)C[C@H]1[C@H](OC(=O)c2ccc(-c3ccccc3)cc2)[C@@H](NC(=O)Cc2ccc(OC)cc2)c2cc(OCCCO)ccc2N1C(=O)c1ccccc1", "z-score": -0.898}
{"Record Smiles": "CC(=O)NCCCC[C@@H]1NC(=O)[C@@H]2C[C@H](C(=O)NCCCCCNC(=O)CS)[C@H](c3cccc(OCCO)c3)N2C1=O", "z-score": -0.652}
